STUDY TARGET: DNA topoisomerase 1 (Homo sapiens) (UniProt P11387)
Sequence (whole entry): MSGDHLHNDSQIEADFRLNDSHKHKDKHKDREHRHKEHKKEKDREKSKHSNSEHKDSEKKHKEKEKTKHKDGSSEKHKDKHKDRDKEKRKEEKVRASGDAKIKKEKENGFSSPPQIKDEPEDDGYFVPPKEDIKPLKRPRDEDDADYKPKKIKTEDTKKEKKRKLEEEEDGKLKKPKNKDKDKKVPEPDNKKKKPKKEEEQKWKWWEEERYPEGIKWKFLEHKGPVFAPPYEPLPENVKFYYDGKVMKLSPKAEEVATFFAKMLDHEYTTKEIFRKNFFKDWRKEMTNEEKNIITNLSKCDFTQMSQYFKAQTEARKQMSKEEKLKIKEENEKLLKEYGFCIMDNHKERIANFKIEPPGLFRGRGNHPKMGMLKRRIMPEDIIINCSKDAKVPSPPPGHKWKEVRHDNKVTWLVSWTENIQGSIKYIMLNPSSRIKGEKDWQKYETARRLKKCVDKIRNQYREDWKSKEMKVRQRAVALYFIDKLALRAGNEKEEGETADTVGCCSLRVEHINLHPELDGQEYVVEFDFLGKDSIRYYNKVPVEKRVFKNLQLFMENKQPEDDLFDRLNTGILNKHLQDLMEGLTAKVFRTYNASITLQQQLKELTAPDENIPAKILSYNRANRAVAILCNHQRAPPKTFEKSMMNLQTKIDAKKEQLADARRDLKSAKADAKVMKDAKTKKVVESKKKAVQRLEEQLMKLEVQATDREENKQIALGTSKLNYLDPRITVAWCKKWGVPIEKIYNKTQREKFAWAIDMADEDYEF
PROTOCOL SUMMARY: Inhibition of human DNA topoisomerase 1 assessed as prevention of DNA-enzyme complex formation
Calls of active or inactive are those of the source. The rule behind the calls is not given here.
ASSAY METRIC: inhibition

COMPOUND	ASSAY METRIC	RESULT
C/C=C(/C)C(=O)O[C@H]1[C@H](O)[C@]2(COC(C)=O)[C@H](O)C[C@]3(C)C(=CC[C@@H]4[C@@]5(C)CC[C@H](O[C@@H]6O[C@H](C(=O)O)[C@@H](O)[C@H](O[C@@H]7O[C@@H](CO)[C@H](O)[C@H]7O)[C@H]6O[C@@H]6O[C@H](CO)[C@@H](O)[C@H](O)[C@H]6O)[C@](C)(CO)[C@@H]5CC[C@]43C)[C@@H]2CC1(C)C [AESCULIOSIDE IIIA]	inhibition	Active
C/C=C(/C)C(=O)O[C@H]1[C@H](OC(=O)C(C)CC)[C@]2(CO)[C@H](O)C[C@]3(C)C(=CC[C@@H]4[C@@]5(C)CC[C@H](O[C@@H]6O[C@H](C(=O)O)[C@@H](O)[C@H](O[C@@H]7O[C@@H](CO)[C@H](O)[C@H]7O)[C@H]6O[C@@H]6O[C@H](CO)[C@H](O)[C@H](O)[C@H]6O)C(C)(C)[C@@H]5CC[C@]43C)[C@@H]2CC1(C)C (stereo partly drawn) [AESCULIOSIDE IVC]	inhibition	Active
C/C=C(/C)C(=O)O[C@H]1[C@H](O)[C@]2(CO)[C@H](O)C[C@]3(C)C(=CC[C@@H]4[C@@]5(C)CC[C@H](O[C@@H]6O[C@H](C(=O)O)[C@@H](O)[C@H](O[C@@H]7O[C@@H](CO)[C@H](O)[C@H]7O)[C@H]6O)[C@](C)(CO)[C@@H]5CC[C@]43C)[C@@H]2CC1(C)C [AESCULIOSIDE IID]	inhibition	Active
